FYI, the data here is from patent US20210292393A1.

- test.system: SARS-CoV-2 spike protein (SARS-CoV-2), P0DTC2
- test.details: HT-SPR, Carterra LSA; mAb coupled to chip, antigen injected; 1:1 fit
- measurement.context: remark: other sources report otherwise
pKd: −log10 of the molar value.
recorded.metric: pKd

• antibody 499 (antibody, V domains shown) VH: EVQLVESGGGLVKPGGSLRLSCAASGFTFSSYSMNWVRQAPGKGLEWVSSISSSSSYIYYADSVKGRFTISRDNAKNSLYLQMNSLRAEDTAVYYCARAPAGIVVGPDYWGQGTLVTVSS VL: NFMLTQPHSVSESPGKTVTISCTGSSGSIASNYVQWYQQRPGSAPTTVIFEDNQRPSGVPDRFSGSIDSSSNSASLTISGLKTEDEADYYCQSYHSSNPHVVFGGGTKLTVL = 9.53
• antibody 495 (antibody, V domains shown) VH: QITLKESGPTLVKPTQTLTLTCTFSGFSLSTSGVGVGWIRQPPGKALEWLALIYWDDDKRYSPSLKSRLTITKDTSKNQVVLIMTNMDPVDTATYYCAHRDSSSWFDLDAFDIWGQGTMVIVSS VL: QSVLTQPPSVSEAPRQRVTISCSGSSSNIGNNAVNWYQQLPGKAPKLLIYYDDLLPSGVSDRFSGSKSGTSASLAISGLQSEDEADYYCAAWDDRLNGPVFGGGTKLTVL = 10.14
• antibody 524 (antibody, V domains shown) VH: QVQLVESGGGVVQPGRSLRLSCAASGFTFSSYAMHWVRQAPGKGLEWVAVISYDGSNKYYADSVKGRFTISRDNSKNTLYLQMNSLRAEDTAVYYCAKAGGGSYYRGFDYWGQGTLVTVSS VL: QSVLTQPPSVSAAPGQKVTISCSGSNSNIGNNYVSWYQQLPGSAPKLLIYDNDKRPSGIPDRFSGSKSGTSATLGITGLQTGDEADYYCGAWDSSLTALVFGGGTKLTVL = 7.46
• antibody 521 (antibody, V domains shown) VH: QVQLVESGGGVVQPGRSLRLSCAASGFTFSSYGMHWVRQAPGKGLEWVAVIWYDGSNKYYADSVKGRFTISRDNSKNTLYLQMNSLRAEDTAVYYCAREGNDYGDYGEWELLGYFDYWGQGTLVTVSS VL: SYELTQPPSVSVSPGQTARITCSGDALPKKYAYWYQQKSGQAPVLVIYEDSKRPSGIPERFSGSSSGTMATLTISGAQVEDEADYYCYSTDSSGNHRRVFGGGTKLTVL = 8.00
